measuredOn: T1, DcR3 (UniProt O95407 30-300, limits assumed)
T1 construct: the construct is not described; also called decoy receptor DcR3; TNFRSF6B
T1 sequence (looked up): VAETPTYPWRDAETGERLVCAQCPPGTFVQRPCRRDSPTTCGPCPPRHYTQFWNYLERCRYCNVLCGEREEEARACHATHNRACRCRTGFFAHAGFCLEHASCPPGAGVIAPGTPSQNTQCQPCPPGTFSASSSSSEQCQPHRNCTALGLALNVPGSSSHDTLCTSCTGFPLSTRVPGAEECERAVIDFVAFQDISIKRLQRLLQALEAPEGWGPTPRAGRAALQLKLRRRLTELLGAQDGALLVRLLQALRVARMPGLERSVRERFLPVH
assayRemarks: ELISA, DcR3
Form field: Rel EC50 (one value per entry).

Example entries and their recorded answers appear below.
{"binder": "TL1W114 (His-TEV-TL1A T192A) (ligand, also called TL1W114 (T192A)) HHHHHHENLYFQGLKGQEFAPSHQQVYAPLRADGDKPRAHLTVVRQTPTQHFKNQFPALHWEHELGLAFTKNRMNYTNKFLLIPESGDYFIYSQVTFRGMTSECSEIRQAGRPNKPDSITVVITKVTDSYPEPAQLLMGTKSVCEVGSNWFQPIYLGAMFSLQEGDKLMVNVSDISLVDYTKEDKTFFGAFLL", "valueObserved": "2.2 ratio (head: nM)"}
{"binder": "TL1W137 (His-TEV-TL1A K240S) (ligand, also called TL1W137 (K240S)) HHHHHHENLYFQGLKGQEFAPSHQQVYAPLRADGDKPRAHLTVVRQTPTQHFKNQFPALHWEHELGLAFTKNRMNYTNKFLLIPESGDYFIYSQVTFRGMTSECSEIRQAGRPNKPDSITVVITKVTDSYPEPTQLLMGTKSVCEVGSNWFQPIYLGAMFSLQEGDKLMVNVSDISLVDYTSEDKTFFGAFLL", "valueObserved": "2.6 ratio (head: nM)"}
{"binder": "TL1W117 (His-TEV-TL1A T192E) (ligand, also called TL1W117 (T192E)) HHHHHHENLYFQGLKGQEFAPSHQQVYAPLRADGDKPRAHLTVVRQTPTQHFKNQFPALHWEHELGLAFTKNRMNYTNKFLLIPESGDYFIYSQVTFRGMTSECSEIRQAGRPNKPDSITVVITKVTDSYPEPEQLLMGTKSVCEVGSNWFQPIYLGAMFSLQEGDKLMVNVSDISLVDYTKEDKTFFGAFLL", "valueObserved": "2.6 ratio (head: nM)"}

## Input # get_value(readout='Rel EC50', item= TL1W33 (E241L) (ligand, no entry of the listing holds E241L; also called E241L variant of His-TL1A) HHHHHHENLYFQGLKGQEFAPSHQQVYAPLRADGDKPRAHLTVVRQTPTQHFKNQFPALHWEHELGLAFTKNRMNYTNKFLLIPESGDYFIYSQVTFRGMTSECSEIRQAGRPNKPDSITVVITKVTDSYPEPTQLLMGTKSVCEVGSNWFQPIYLGAMFSLQEGDKLMVNVSDISLVDYTKLDKTFFGAFLL )
## Output 1.2 ratio (head: nM)

## Input # lookup: Rel EC50 of TL1W37 (His-TEV-TL1A L123E) (ligand, also called TL1W37 (L123E)) HHHHHHENLYFQGLKGQEFAPSHQQVYAPLRADGDKPRAHLTVVRQTPTQHFKNQFPALHWEHEEGLAFTKNRMNYTNKFLLIPESGDYFIYSQVTFRGMTSECSEIRQAGRPNKPDSITVVITKVTDSYPEPTQLLMGTKSVCEVGSNWFQPIYLGAMFSLQEGDKLMVNVSDISLVDYTKEDKTFFGAFLL
## Output 5.3 ratio (head: nM)

## Input Entry under review: TL1W86 (His-TEV-TL1A G124K) (ligand, also called TL1W86 (G124K)) HHHHHHENLYFQGLKGQEFAPSHQQVYAPLRADGDKPRAHLTVVRQTPTQHFKNQFPALHWEHELKLAFTKNRMNYTNKFLLIPESGDYFIYSQVTFRGMTSECSEIRQAGRPNKPDSITVVITKVTDSYPEPTQLLMGTKSVCEVGSNWFQPIYLGAMFSLQEGDKLMVNVSDISLVDYTKEDKTFFGAFLL . Reported Rel EC50?
## Output 0.6 ratio (head: nM)
